Tested on: HEK293
Test: Cytotoxicity against human HEK293 cells measured after 72 hrs by resazurin assay
Format: toxicity, cell-based
Conditions: hek293, 72 h
REPORTED PROPERTY: Activity

{"ITEM SMILES": "O=C(O)c1cc2c([nH]c3ccc(Br)cc32)c(C(=O)c2cn(S(=O)(=O)O)c3ccc(Br)cc23)n1", "RESULT VALUE": "Toxic"}
{"ITEM SMILES": "O=C1C=C(c2cc(Br)c(O)c(Br)c2)[C@]2(O1)O[C@]1(OC(=O)C=C1c1cc(Br)c(O)c(Br)c1)C(c1ccc(O)c(Br)c1)=C2c1ccc(O)c(Br)c1", "RESULT VALUE": "Toxic"}
{"ITEM SMILES": "O=C1C=C(c2ccc(O)cc2)[C@]2(O1)O[C@]1(OC(=O)C=C1c1ccc(O)cc1)C(c1ccc(O)cc1)=C2c1ccc(O)cc1", "RESULT VALUE": "Toxic"}
{"ITEM SMILES": "O=C1C=C(c2cc(Br)c(O)c(Br)c2)[C@]2(O1)O[C@]1(OC(=O)C=C1c1cc(Br)c(O)c(Br)c1)C(c1cc(Br)c(O)c(Br)c1)=C2c1cc(Br)c(O)c(Br)c1", "RESULT VALUE": "Toxic"}

The reported numbers originate from ChEMBL document CHEMBL5143562.
